Biological target: CUG-BP2 RRM3 wild-type (UniProt O95319 416-508, Y508W)
Sequence (O95319 416-508 Y508W): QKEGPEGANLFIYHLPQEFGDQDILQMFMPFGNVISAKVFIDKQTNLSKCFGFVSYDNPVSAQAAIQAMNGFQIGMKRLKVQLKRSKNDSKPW
Experiment: NMR 15N-HSQC titration; 25 C; RNA variant series; 20 mM K phosphate pH 5.8, 10 mM NaCl, 0.1% beta-mercaptoethanol, 25 C (NMR titrations and ITC); hnRNP A1: 10 mM Na phosphate pH 6.5, 10 mM beta-mercaptoethanol
Details: protein: recombinant
measurement name: pKd
pKd here: minus log base 10 of the concentration, concentration in moles per litre.

Can you share its pKd? I mean this binder: UUUAA (ssRNA)
4.18

Hello, the source for this data is paper PMC5608764, in case you need it.
